// reported normalized growth per item
# Test Summary: chemical genetic growth profiling, strain panel (AID 1159580);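 further: tested at 20 µM; growth read once vehicle control cultures reached saturation at 30 °C; 1 = growth at the plate median or of vehicle wells; lower values mean less growth of the strain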
# Measurement Conditions: S. cerevisiae deletion strains, growth OD, locus YKR001C, strain vps1, hits give low values
The whole screen tested about 5,500 compounds, of which about 2,000 (36%) were called active. About 18% were inconclusive and are not listed. The list shows a part of the results.
Quantity Name: normalized growth

>>> df
                                   molecule   observed_result
0                            NCCc1ccc(O)cc1  0.978 (inactive)
1                        CC(=O)Nc1ccc(O)cc1  0.982 (inactive)
2  COC(=O)C[C@H]1C(C)(C)C(=O)[C@@H]2CC3=C4CC(OC)O[C@@H](c5ccoc5)[C@]4(C)CCC3[C@@]1(C)C2=O (some centres not stated)      1 (inactive)
3          CC(=O)Nc1ccc(OC(=O)c2ccccc2O)cc1    0.794 (active)
4  CCn1cc(C(=O)O)c(=O)c2cc(F)c(N3CCNCC3)cc21  0.985 (inactive)
5  COc1cc([C@@H]2c3cc4c(cc3[C@H](OC(C)=O)[C@H]3COC(=O)[C@H]23)OCO4)cc(OC)c1OC  0.976 (inactive)
6                            NCCc1cccc(O)c1  0.976 (inactive)
